# credit: patent US20250243180A1

Molecular target: NEK7 (Homo sapiens (Human), UniProt Q8TDX7+Q96SW2)
Sequence (Q8TDX7 whole entry): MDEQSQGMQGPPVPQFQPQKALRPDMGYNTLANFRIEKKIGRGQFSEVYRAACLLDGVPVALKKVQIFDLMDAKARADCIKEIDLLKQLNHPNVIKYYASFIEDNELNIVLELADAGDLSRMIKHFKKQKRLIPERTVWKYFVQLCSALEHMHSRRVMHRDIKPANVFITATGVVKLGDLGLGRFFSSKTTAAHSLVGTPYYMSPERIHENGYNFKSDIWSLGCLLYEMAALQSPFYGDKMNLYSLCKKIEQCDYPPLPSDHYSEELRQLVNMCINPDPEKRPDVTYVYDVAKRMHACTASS
Sequence (Q96SW2 whole entry): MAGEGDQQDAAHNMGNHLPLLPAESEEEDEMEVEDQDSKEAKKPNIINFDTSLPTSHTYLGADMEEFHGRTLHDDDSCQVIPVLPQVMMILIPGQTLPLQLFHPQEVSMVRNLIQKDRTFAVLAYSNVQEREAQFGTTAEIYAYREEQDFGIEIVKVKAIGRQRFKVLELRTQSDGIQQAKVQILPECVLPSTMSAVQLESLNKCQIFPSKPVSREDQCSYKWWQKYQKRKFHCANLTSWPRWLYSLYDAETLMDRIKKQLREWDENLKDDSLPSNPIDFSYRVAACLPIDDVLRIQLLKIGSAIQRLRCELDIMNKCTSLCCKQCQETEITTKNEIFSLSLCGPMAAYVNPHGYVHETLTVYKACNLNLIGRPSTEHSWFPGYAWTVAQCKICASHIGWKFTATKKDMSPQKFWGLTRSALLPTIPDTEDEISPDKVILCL
Sequence (Q16531 2-1140 partner): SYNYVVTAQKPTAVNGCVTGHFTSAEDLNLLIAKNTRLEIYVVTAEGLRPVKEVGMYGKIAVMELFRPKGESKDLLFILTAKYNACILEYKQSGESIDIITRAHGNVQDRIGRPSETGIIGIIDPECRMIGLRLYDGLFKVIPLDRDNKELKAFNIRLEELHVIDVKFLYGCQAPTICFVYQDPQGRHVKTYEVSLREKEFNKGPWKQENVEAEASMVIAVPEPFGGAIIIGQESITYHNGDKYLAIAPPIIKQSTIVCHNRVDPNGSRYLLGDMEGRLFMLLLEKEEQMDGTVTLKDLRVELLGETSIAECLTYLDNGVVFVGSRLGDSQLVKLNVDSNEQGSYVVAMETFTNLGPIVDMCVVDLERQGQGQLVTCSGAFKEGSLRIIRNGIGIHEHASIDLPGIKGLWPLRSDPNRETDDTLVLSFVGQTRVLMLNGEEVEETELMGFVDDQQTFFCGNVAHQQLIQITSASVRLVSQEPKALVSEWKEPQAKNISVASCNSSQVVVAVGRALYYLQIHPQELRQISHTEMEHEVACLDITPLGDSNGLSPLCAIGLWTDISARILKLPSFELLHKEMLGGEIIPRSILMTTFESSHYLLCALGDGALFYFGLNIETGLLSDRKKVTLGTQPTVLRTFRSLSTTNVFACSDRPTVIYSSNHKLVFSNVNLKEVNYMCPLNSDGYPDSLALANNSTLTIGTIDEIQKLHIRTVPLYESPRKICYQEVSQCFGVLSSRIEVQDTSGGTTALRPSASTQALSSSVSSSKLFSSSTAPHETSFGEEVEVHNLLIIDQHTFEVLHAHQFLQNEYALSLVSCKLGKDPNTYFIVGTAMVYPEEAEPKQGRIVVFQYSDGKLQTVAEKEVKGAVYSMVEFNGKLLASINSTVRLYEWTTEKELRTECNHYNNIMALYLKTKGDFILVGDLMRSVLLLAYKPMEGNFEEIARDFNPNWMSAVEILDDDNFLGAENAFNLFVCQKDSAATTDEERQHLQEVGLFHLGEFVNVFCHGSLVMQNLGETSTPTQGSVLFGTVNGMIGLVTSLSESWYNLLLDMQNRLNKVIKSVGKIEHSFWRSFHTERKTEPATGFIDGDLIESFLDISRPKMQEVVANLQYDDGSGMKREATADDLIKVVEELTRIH
Assay: NEK7 NanoBiT degradation assay in Cal51 NEK7 NanoBiT cell line
Assay type: cell-based
Details: CAL-51; NEK7 degradation, Cal51 NEK7 NanoBiT cells, 24 hours; read-out: NanoBiT Dmax
Experimental: Cal51 NEK7 NanoBiT cell line was generated via CRISPR Knock-In of the HiBiT tag in NEK7 gene and stable infection with a lentivirus carrying LgBiT protein. The cell line was generated in house. […] Cells were incubated at 37° C., 5% CO2 for 24 hours and then signal was read on a Pherastar FSX using “LUM plus” optic module with 4095 gain and measurement interval time 0.2 seconds. […]
MEASUREMENT_NAME: Dmax

Here's what some known entries look like.
CC(C)(C(=O)NCc1cc(Cl)c(C2CCC(=O)NC2=O)c(Cl)c1)c1nccc(C(F)F)n1 (stereo not drawn) [Compound 182] : 50 to 75%
Cc1cnc(C(C)(C)C(=O)NCc2cc(Cl)c(C3CCC(=O)NC3=O)c(Cl)c2)o1 (stereo not drawn) [Compound 163] : > 75%
CC(C)(C(=O)NCc1cc(Cl)c(C2CCC(=O)NC2=O)c(Cl)c1)c1ncc(C(F)(F)F)cn1 (stereo not drawn) [Compound 175] : > 75%
Cc1ocnc1C(C)(C)C(=O)NCc1cc(Cl)c(C2CCC(=O)NC2=O)c(Cl)c1 (stereo not drawn) [Compound 236] : 50 to 75%
Cn1ccc2cc(C(C)(C)C(=O)NCc3cc(Cl)c(C4CCC(=O)NC4=O)c(Cl)c3)ccc21 (stereo not drawn) [Compound 90] : > 75%

Field Dmax (entry Cc1noc(C(C)(C)C(=O)NCc2cc(Cl)c(C3CCC(=O)NC3=O)c(Cl)c2)n1 (stereo not drawn) [Compound 164] ) reads 50 to 75%

Dmax reading for CC(C)(C(=O)NCc1cc(Cl)c(C2CCC(=O)NC2=O)c(Cl)c1)c1cccc(S(C)(=O)=O)c1 (stereo not drawn) [Compound 62] : > 75%

The compound identified as CC(C)(C(=O)NCc1cc(Cl)c(C2CCC(=O)NC2=O)c(Cl)c1)c1ccc2occc2c1 (stereo not drawn) [Compound 87] registered its Dmax at > 75%

The compound CC(C)(C(=O)NCc1cc(Cl)c(C2CCC(=O)NC2=O)c(Cl)c1)N1CCc2ccccc21 (stereo not drawn) [Compound 166] showed Dmax equal to 50 to 75%

Dmax recorded for this compound, CC(C)(C(=O)NCc1cc(Cl)c(C2CCC(=O)NC2=O)c(Cl)c1)c1c[nH]cn1 (stereo not drawn) [Compound 118] , is ≤ 50%

Reported Dmax for CC(C)(C(=O)NCc1cc(Cl)c(C2CCC(=O)NC2=O)c(Cl)c1)c1ncncc1F (stereo not drawn) [Compound 8] was > 75%

Record CC(C)(C(=O)NCc1cc(Cl)c([C@@H]2CCC(=O)NC2=O)c(Cl)c1)c1ncccn1 (single isomer, unassigned) [Compound 179] . Reported Dmax: 50 to 75%

Entry CC(C)(C(=O)NCc1cc(Cl)c(C2CCC(=O)NC2=O)c(Cl)c1)c1ccc(C(N)=O)c(F)c1 (stereo not drawn) [Compound 57] ; Dmax = > 75%

// CCOc1ccc(C(C)(C)C(=O)NCc2cc(F)c(C3CCC(=O)NC3=O)c(Cl)c2)nn1 (stereo not drawn) [Compound 258] : Dmax value = > 75%

The compound listed as CC(C)(C(=O)NCc1cc(Cl)c(C2CCC(=O)NC2=O)c(Cl)c1)c1ccns1 (stereo not drawn) [Compound 125] has a reported Dmax of 50 to 75%

###

biological target: CRBN-DDB1 (Homo sapiens (Human)); assay: Compound binding to CRBN by HTRF assay; conditions: HTRF class; Cereblon binding
pEC50: −log10 of the molar value.
MEASUREMENT_NAME: pEC50

Here are 6 compounds together with their reported answers.
O=C1CCC(c2c(Cl)cc(CNC(=O)C3(c4ccccc4)CCC3)cc2Cl)C(=O)N1 (centres unmarked) : ≥ 7.00
CC(C)(O)c1ccc(C(C)(C)C(=O)NCc2cc(Cl)c(C3CCC(=O)NC3=O)c(Cl)c2)nn1 (centres unmarked) : 6.00 to 7.00
Cc1conc1C(C)(C)C(=O)NCc1cc(F)c(C2CCC(=O)NC2=O)c(Cl)c1 (centres unmarked) : 6.00 to 7.00
CC(C)(C(=O)NCc1cc(F)c(C2CCC(=O)NC2=O)c(Cl)c1)c1cnc(OC(F)(F)F)cn1 (centres unmarked) : 6.00 to 7.00
Cc1ccc(C(C)(C)C(=O)NCc2cc(Cl)c(C3CCC(=O)NC3=O)c(Cl)c2)nn1 (centres unmarked) : 6.00 to 7.00
CC(C)(C(=O)NCc1cc(Cl)c(C2CCC(=O)NC2=O)c(Cl)c1)c1ccncn1 (centres unmarked) : 6.00 to 7.00

Note to self: pEC50 recorded for CC(C)(C(=O)NCc1cc(Cl)c(C2CCC(=O)NC2=O)c(Cl)c1)c1ccccc1F (centres unmarked) was ≥ 7.00

# pEC50 of Cc1cnc(C(C)(C)C(=O)NCc2cc(Cl)c([C@@]3(F)CCC(=O)NC3=O)c(Cl)c2)nc1 (single isomer, unassigned) = 6.00 to 7.00

Entry under test: O=C1CCC(c2c(Cl)cc(CNC(=O)C3(c4ccc5cn[nH]c5c4)CCOCC3)cc2Cl)C(=O)N1 (centres unmarked) . Its pEC50 was ≥ 7.00

For CC(C)(C(=O)NCc1cc(F)c(C2CCC(=O)NC2=O)c(Cl)c1)c1ccc(OC(F)(F)F)nn1 (centres unmarked) the compound record lists pEC50 as 6.00 to 7.00

Looking up CC(C)(C(=O)NCc1cc(Cl)c(C2CCC(=O)NC2=O)c(Cl)c1)C1CCCC1 (centres unmarked) , I see its pEC50 listed as ≥ 7.00

Summary for this compound, CC(C)(C(=O)NCc1cc(Cl)c(C2CCC(=O)NC2=O)c(Cl)c1)c1ccc(S(N)(=O)=O)cc1 (centres unmarked) : pEC50 is ≥ 7.00

Reported pEC50 ( CC(C)(C(=O)NCc1cc(Cl)c(C2CCC(=O)NC2=O)c(Cl)c1)C1CCCCC1 (centres unmarked) ) = 6.00 to 7.00

Consider CC(C)(C(=O)NCc1cc(Cl)c(C2CCC(=O)NC2=O)c(Cl)c1)c1cc[nH]c(=O)c1 (centres unmarked) . Its measured pEC50 is 6.00 to 7.00

The value of pEC50 measured for the compound CC(C)(O)c1cnc(C(C)(C)C(=O)NCc2cc(Cl)c(C3CCC(=O)NC3=O)c(Cl)c2)nc1 (centres unmarked) turned out to be 6.00 to 7.00

###

target: NEK7 (Homo sapiens (Human), UniProt Q8TDX7+Q96SW2); assay: NEK7 NanoBiT degradation assay in Cal51 NEK7 NanoBiT cell line; type: cell-based; settings: Cal51 NEK7 NanoBiT cells, 24 hours; read-out: NEK7 NanoBiT DC50
MEASUREMENT_NAME: DC50 (nM)

CC(C)(C(=O)NCc1cc(F)c(C2CCC(=O)NC2=O)c(Cl)c1)c1ccncc1 (stereo not drawn) [Compound 106] : 26

I = Cc1conc1C(C)(C)C(=O)NCc1cc(Cl)c(C2CCC(=O)NC2=O)c(Cl)c1 (stereo not drawn) [Compound 201]
II = CC(C)(C(=O)NCc1cc(Cl)c(C2CCC(=O)NC2=O)c(Cl)c1)c1ccn2nccc2c1 (stereo not drawn) [Compound 82]
III = CC(C)(C(=O)NCc1cc(Cl)c([C@]2(F)CCC(=O)NC2=O)c(Cl)c1)c1ccccc1 (single isomer, unassigned) [Compound 273]
Query: Reorder: DC50, max to min. Order the labels as requested and list them.
Result: III, I, II

1 = O=C1CCC(c2c(Cl)cc(CNC(=O)C3(c4ccccc4)CCOCC3)cc2Cl)C(=O)N1 (stereo not drawn) [Compound 128]
2 = CC(C)(C(=O)NCc1cc(Cl)c(C2CCC(=O)NC2=O)c(Cl)c1)c1ncc(OC(F)F)cn1 (stereo not drawn) [Compound 188]
3 = Cc1noc(C)c1C(C)(C)C(=O)NCc1cc(Cl)c(C2CCC(=O)NC2=O)c(Cl)c1 (stereo not drawn) [Compound 112]
Query: Please produce an ascending ranking of these molecules based on DC50. Arrange the labels as the request states and list them.
Result: 2, 1, 3

###

molecular target: CRBN-DDB1 (Homo sapiens (Human), UniProt Q96SW2); test: Compound binding to CRBN by HTRF assay
Sequence (Q96SW2 whole entry): as the sequence (Q96SW2 whole entry) above
Sequence (Q16531 whole entry partner): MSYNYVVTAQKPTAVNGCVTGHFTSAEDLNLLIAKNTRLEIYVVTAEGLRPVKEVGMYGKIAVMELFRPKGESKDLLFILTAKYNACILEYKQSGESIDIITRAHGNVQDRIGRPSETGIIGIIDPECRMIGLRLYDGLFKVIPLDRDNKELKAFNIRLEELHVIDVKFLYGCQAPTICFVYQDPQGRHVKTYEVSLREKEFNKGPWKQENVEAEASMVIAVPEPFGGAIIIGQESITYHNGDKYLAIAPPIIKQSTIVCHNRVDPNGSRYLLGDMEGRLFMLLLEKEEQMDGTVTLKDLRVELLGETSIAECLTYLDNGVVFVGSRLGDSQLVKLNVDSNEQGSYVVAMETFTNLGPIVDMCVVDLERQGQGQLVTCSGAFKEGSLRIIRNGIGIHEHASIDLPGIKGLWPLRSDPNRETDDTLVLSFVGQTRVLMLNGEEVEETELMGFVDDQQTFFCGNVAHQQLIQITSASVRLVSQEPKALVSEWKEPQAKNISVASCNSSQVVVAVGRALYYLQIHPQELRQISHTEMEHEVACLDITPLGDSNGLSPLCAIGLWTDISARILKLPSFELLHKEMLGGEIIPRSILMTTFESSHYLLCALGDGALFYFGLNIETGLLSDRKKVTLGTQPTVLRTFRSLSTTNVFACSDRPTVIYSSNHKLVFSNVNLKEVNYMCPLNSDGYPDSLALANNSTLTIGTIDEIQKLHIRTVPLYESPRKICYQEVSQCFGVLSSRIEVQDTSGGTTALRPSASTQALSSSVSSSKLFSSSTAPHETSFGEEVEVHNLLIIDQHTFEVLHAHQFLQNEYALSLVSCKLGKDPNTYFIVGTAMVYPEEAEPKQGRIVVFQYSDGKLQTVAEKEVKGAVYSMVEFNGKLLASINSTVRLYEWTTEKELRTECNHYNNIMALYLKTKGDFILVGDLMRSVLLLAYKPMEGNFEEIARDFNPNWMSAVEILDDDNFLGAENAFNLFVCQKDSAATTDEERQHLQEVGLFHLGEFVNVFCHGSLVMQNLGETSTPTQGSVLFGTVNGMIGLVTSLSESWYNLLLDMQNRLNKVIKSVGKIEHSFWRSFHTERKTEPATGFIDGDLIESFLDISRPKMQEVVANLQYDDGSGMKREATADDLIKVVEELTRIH
pEC50: −log10 of the molar value.
MEASUREMENT_NAME: pEC50

Worked cases, pEC50 given:
CC(C)(C(=O)NCc1cc(Cl)c(C2CCC(=O)NC2=O)c(Cl)c1)c1ccc(C(N)=O)c(F)c1 (stereo not drawn) : 6.89
CC(C)(C(=O)NCc1cc(Cl)c(C2CCC(=O)NC2=O)c(Cl)c1)c1ncc(F)cn1 (stereo not drawn) : 6.72
CC(C)(C(=O)NCc1cc(Cl)c(C2CCC(=O)NC2=O)c(Cl)c1)c1ncc(C2COC2)cn1 (stereo not drawn) : 6.54
O=C1CCC(c2c(Cl)cc(CNC(=O)C3(c4ccc5[nH]ncc5c4)CCOCC3)cc2Cl)C(=O)N1 (stereo not drawn) : 7.30

I = CC(C)(C(=O)NCc1cc(Cl)c(C2CCC(=O)NC2=O)c(Cl)c1)c1ccc2nonc2c1 (stereo not drawn)
II = Cc1cnc(C(C)(C)C(=O)NCc2cc(F)c(C3CCC(=O)NC3=O)c(Cl)c2)o1 (stereo not drawn)
Query: // compare measured pEC50, left I , right II , return larger Refer to your chosen item by its label in the answer.
Result: I

P = O=C1CCC(c2c(Cl)cc(CNC(=O)C3(c4ccccc4)CCOCC3)cc2Cl)C(=O)N1 (stereo not drawn)
Q = CC(C)(C(=O)NCc1cc(Cl)c(C2CCC(=O)NC2=O)c(Cl)c1)c1cccc2ocnc12 (stereo not drawn)
Query: For the two items P and Q , which reports the higher pEC50 value? Answer with the label corresponding to your selection.
Result: P
